Counter-ions that a name gives are not always drawn.
Recorded melting point by entry

Solved entries:
* C[C@@H]1CCCN1CCCOc1ccc(C2=NN(Cc3ccccc3)C(=O)CC2)cc1 (as salt: HCl) [Example 17] | 56 to 58 °C
* COC[C@@H]1CCCN1CCCOc1ccc(-c2nn(C(C)C)c(=O)c3ccsc23)cc1 (as salt: HCl) [Example 26] | 83 °C (dec.)
* Cc1cccc(-n2ncc(-c3ccc(OCCCN4CCC[C@H]4C)cc3)cc2=O)n1 [Example 98] | 118 to 120 °C
* CCN(CC)CCCOc1ccc(-c2nn(C(C)C)c(=O)c3ccsc23)cc1 (as salt: HCl) [Example 28] | 188 to 190 °C
* CC1CC(=O)N(c2ccccn2)N=C1c1ccc(OC2CCN(C3CCC3)CC2)cc1 (stereo not shown) (as salt: HCl) [Example 193] | 143 to 145 °C
* C[C@@H]1CCCN1CCCOc1ccc(C2=NNC(=O)C3CC23)cc1 (mixture of isomers) (as salt: HCl) [Example 243] | 136 to 139 °C
* O=C1CCC(c2ccc(OC3CCNCC3)cc2)=NN1C1CCC1 [Example 165] | 168 to 170 °C
* Cc1n[nH]c(=O)cc1-c1ccc(OC2CCNCC2)cc1.Cl [Example 102] | 225 to 227 °C

Given CN1N=C(c2ccc(OC3CCN(C4CCCC4)CC3)cc2)C2CC2C1=O (stereo not shown) (as salt: HCl) [Example 260] , state its recorded melting point.
264 to 266 °C

Also, CC(C)n1nc(-c2ccc(OC3CCN(C4CCC4)CC3)nc2)ccc1=O [Example 145] please.
113 to 115 °C

Also, COCn1ncc(-c2ccc(OCCCN3CCC[C@H]3C)cc2)cc1=O [Example 224] please.
183 to 185 °C

Also, C[C@@H]1CCCN1CCCOc1ccc2cnn(C)c(=O)c2c1 (as salt: hydrochloride) [Example 79] please.
252 to 253 °C

Also, Cc1cc(-c2ccc(OCCCN3CCCCC3)cc2)n[nH]c1=O (as salt: HCl) [Example 123] please.
227 to 229 °C

----------
Target: rat histamine H3 receptor (Rattus norvegicus, UniProt Q9QYN8)
Construct: encoding the entire 445-amino-acid rat histamine H3 receptor; expressed in transfected cells
Sequence (Q9QYN8 whole entry): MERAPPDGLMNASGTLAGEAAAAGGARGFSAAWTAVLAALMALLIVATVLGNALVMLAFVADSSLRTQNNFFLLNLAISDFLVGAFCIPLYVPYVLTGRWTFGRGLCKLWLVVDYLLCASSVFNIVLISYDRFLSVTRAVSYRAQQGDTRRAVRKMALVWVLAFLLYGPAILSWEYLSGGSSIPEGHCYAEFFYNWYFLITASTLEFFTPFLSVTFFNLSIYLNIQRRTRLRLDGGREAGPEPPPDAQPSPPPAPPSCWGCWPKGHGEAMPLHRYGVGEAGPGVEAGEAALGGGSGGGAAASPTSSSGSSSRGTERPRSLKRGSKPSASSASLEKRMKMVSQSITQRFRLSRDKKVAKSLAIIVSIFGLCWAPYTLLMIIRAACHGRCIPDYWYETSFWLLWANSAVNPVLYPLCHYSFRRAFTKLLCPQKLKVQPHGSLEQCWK
Experiment: Rat H3 radioligand binding ([3H]-N-alpha-methylhistamine, CHO-A3 cell membranes, SPA)
Conditions: Table B, binding constant as letter class; read-out: rat H3 Ki
Counter-ions that a name gives are not always drawn.
measurement_kind: Ki

Solved entries:
• Cc1onc2c(=O)[nH]nc(-c3ccc(OC4CCNCC4)cc3)c12 [Example 206, TFA salt] = > 1000 nM
• C[C@H](COc1ccc(-c2ccc(=O)[nH]n2)cc1)CN1CCC[C@H]1C = 0.1 to 100 nM
• C[C@@H]1CCCN1CCCOc1ccc(-c2ccc(=O)[nH]n2)cn1 = 0.1 to 100 nM
• C[C@@H]1CCCN1CCCOc1ccc(C2=NNC(=O)C3CC23)cc1 (single isomer, unassigned) [Example 247] = 0.1 to 100 nM
• N#Cc1cc(-c2ccc(=O)[nH]n2)ccc1OCCCN1CCCCC1 = 101 to 500 nM
• O=c1[nH]nc(-c2ccc(OC3CCN(C4CCC4)CC3)cc2)c2c1CCC2 = 0.1 to 100 nM
• CCc1cc(=O)[nH]nc1-c1ccc(OCCCN2CCC[C@H]2C)cc1 = 0.1 to 100 nM
• O=c1cc(-c2ccc(OC3CCN(C4CCC4)CC3)nc2)cn[nH]1 = 0.1 to 100 nM

Could you share what Ki was measured for COCn1ncc(-c2ccc(OCCCN3CCCCC3)cc2C)cc1=O , tested on rat histamine H3 receptor (Rattus norvegicus, UniProt Q9QYN8)?
0.1 to 100 nM

Also, O=c1ccc(-c2ccc(OC3CCN(C4CCC4)CC3)cc2F)n[nH]1 please.
0.1 to 100 nM

----------
Recorded pKi by entry
Target: rat histamine H3 receptor (Rattus norvegicus)
Construct: encoding the entire 445-amino-acid rat histamine H3 receptor; expressed in transfected cells
Assay: Rat H3 radioligand binding ([3H]-N-alpha-methylhistamine, CHO-A3 cell membranes, SPA)
Settings: Table B, binding constant as letter class; read-out: rat H3 Ki
pKi: −log10 of the molar value.

Solved entries:
- Cc1cc(=O)[nH]nc1-c1ccc(OC2CCN(C3CCC3)CC2)cc1 [Example 222]: 7.00 to 10.00
- CC1(C)CC(c2ccc(OC3CCN(C4CCC4)CC3)cc2)=NNC1=O [Example 152]: 7.00 to 10.00
- O=c1ccc(-c2ccc(OC[C@H](O)CN3CCCCC3)cc2)n[nH]1 [Example 259]: 6.30 to 7.00
- CN(CCCOc1ccc(-c2ccc(=O)[nH]n2)cc1)C1CCC1 [Example 241]: 6.30 to 7.00
- C[C@@H]1CCCN1CCCOc1ccc(C2=NNC(=O)C3CCC23)cc1 (some centres unmarked) [Example 173]: 7.00 to 10.00

Could you share what pKi was measured for O=C1CC(c2ccccn2)C(c2ccc(OC3CCNCC3)cc2)=NN1 (centres unmarked) [Example 113] , tested on rat histamine H3 receptor (Rattus norvegicus)?
< 6.00

Also, C[C@H]1CCCN1CCCOc1ccc(-c2ccc(=O)[nH]n2)cc1 [Example 239] please.
7.00 to 10.00

Also, C[C@@H]1CCCN1CCCOc1ccc2c(c1)CCC1CC(=O)NN=C21 (some centres unmarked) [Example 212] please.
7.00 to 10.00
